The reported measurements were obtained from patent US20260365670A1.

- Tested on: Ba/F3 cells expressing EGFR mutations
- assay-overview: Cell proliferation assay, Ba/F3 cells expressing EGFR mutations (CellTiter-Glo, 72 hours)
- Assay type: cell-based
- cond: Mus musculus, BaF3, 72 h, BaF3 cells, EGFR L858R - T790-C797S, read-out: GI50 L858R - T790-C797S/BaF3
Criterion: GI50 strictly less than 30 nM. Met: T. Not met: F.

Problem: Answer whether the compound "Cc1cc2cc(n1)-c1cnn(C)c1OCCN1CC3CCC(CC3)(C1)n1c(nc3ccc(N4CCN(C(C)C)CC4)cc31)NC2=O" has GI50 strictly less than 30 nM
Result: T

Problem: Is GI50 strictly under 30 nM for the entry "Cn1ncc2c1OCCN1CC3CCC(CC3)(C1)n1c(nc3ccc(N4CCN(C5CC5)CC4)cc31)NC(=O)c1cc-2c(=O)n(C)c1" ?
Result: F

Problem: Record Cc1cc2cc(n1)-c1cnn(C)c1OCCN1CCCCC(C1)n1c(nc3ccccc31)NC2=O (stereo not drawn) : is its GI50 strictly below 30 nM?
Result: F

Problem: Please indicate whether the reported GI50 of CN1CCC2CN(c3ccc4nc5n(c4c3)C34CCC(CC3)CN(CCOc3c(cnn3C)-c3cc(cn(C)c3=O)C(=O)N5)C4)CC21 (stereo not drawn) is strictly below 30 nM.
Result: T

Problem: GI50 under 30 nM? Item: "CN(C)C1CCN(c2ccc3nc4n(c3c2)C23CCC(CC2)CN(CCOc2c(cnn2C)-c2cc(cn(C)c2=O)C(=O)N4)C3)CC1"
Result: T

Problem: Here's an entry: "CN(C)[C@@H]1CCN(c2ccc3nc4n(c3c2)C23CCC(CC2)CN(CCOc2c(cnn2C)-c2cc(cn(C)c2=O)C(=O)N4)C3)C1" . Is its GI50 below 30 nM?
Result: T

Problem: Bench note: check whether "Cc1cc2cc(n1)-c1cc(=O)n(C)cc1OCCC[C@@H](C)Cn1c(nc3ccccc31)NC2=O" shows GI50 below 30 nM
Result: F

Problem: Strictly below 30 nM in GI50? "Cc1cc2cc(n1)-c1cnn(C)c1OCCCCCn1c(nc3ccc4c(c31)CCNC4)NC2=O"
Result: T

Problem: Strictly below 30 nM in GI50? "CN1CCN(c2ccc3nc4n(c3c2)C(C)(C)CCCCOc2c(cnn2C)-c2cc(cn(C)c2=O)C(=O)N4)CC1"
Result: F

Problem: Does this compound meet the criterion GI50 < 30 nM? "CN1CCC2(CC1)CCN(c1ccc3nc4n(c3c1)C13CCC(CC1)CN(CCOc1c(cnn1C)-c1cc(cn(C)c1=O)C(=O)N4)C3)C2"
Result: T

Problem: Is it true that GI50 reported for "Cc1cc2cc(n1)-c1cnn(C)c1OCCCCCn1c(nc3ccc4c(c31)CCN(C1COC1)C4)NC2=O" is less than 30 nM?
Result: T

Problem: Would you kindly verify if GI50 of "Cn1ncc2c1OCCN1CC3CCC(CC3)(C1)n1c(nc3cc(F)c(N4CCOCC4)cc31)NC(=O)c1cc-2c(=O)n(C)c1" is strictly less than 30 nM?
Result: F

Problem: Is 30 nM strictly greater than the compound's reported GI50? compound: Cc1cc2cc(n1)-c1cnn(C)c1OCCN1CC3CCC(CC3)(C1)n1c(nc3ccc(N4CC5CN(C)CC5C4)cc31)NC2=O (stereo not drawn)
Result: T

Problem: Check if GI50 falls below 30 nM for "Cc1cc2cc(n1)-c1cnn(C)c1OCCCCCn1c(nc3ccc4c(c31)CCN(CCN(C)C)C4)NC2=O" .
Result: T

Problem: Below 30 nM on GI50? Entry "CN(C)[C@H]1CCN(c2ccc3nc4n(c3c2)C23CCC(CC2)CN(CCOc2c(cnn2C)-c2cc(cn(C)c2=O)C(=O)N4)C3)C1"
Result: T

Problem: Lab note: GI50 threshold 30 nM. Does this compound come in strictly under it? "Cc1cc2cc(n1)-c1cnn(C)c1OCCN1CC3CCC(CC3)(C1)n1c(nc3ccc(N4CC[C@H](N(C)C)C4)cc31)NC2=O"
Result: T

Problem: Identify whether the compound "Cc1cc2cc(n1)-c1cnn(C)c1OCCN1CC3CCC(CC3)(C1)n1c(nc3ccc(N(C)CCN(C)C)cc31)NC2=O" records GI50 below 30 nM.
Result: T

Problem: Does "Cc1cc2cc(n1)-c1cnn(C)c1OCCN1CC3CCC(CC3)(C1)n1c(nc3ccc(N4CCC5(CC4)CCN5C)cc31)NC2=O" have GI50 strictly under 30 nM?
Result: T

Problem: Given Cc1cc2cc(n1)-c1cnn(C)c1OCCN1CC3CCC(C3)(C1)n1c(nc3ccc(N4CCN(C)CC4)cc31)NC2=O (stereo not drawn) [Example B9B] , is recorded GI50 strictly lower than 30 nM?
Result: T

Problem: GI50 strictly < 30 nM for this compound? "Cn1ncc2c1OCCN1CC3CCC(CC3)(C1)n1c(nc3cc(F)ccc31)NC(=O)c1cc-2c(=O)n(C)c1"
Result: F

Problem: GI50 strictly < 30 nM for this compound? "C[C@@H]1CCCOc2ccccc2-c2cc(cn(C)c2=O)C(=O)Nc2nc3ccc(N4CCN(C)CC4)cc3n2C1"
Result: T

Problem: Confirm or reject: GI50 of "Cc1cc2cc(n1)-c1cnn(C)c1OCCN1CC3CCC(CC3)(C1)n1c(nc3ccc(N4CCOCC4)cc31)NC2=O" lies strictly below 30 nM
Result: T

Problem: Quick check: does "Cc1cc2cc(n1)-c1cnn(C3CC3)c1OCCN(CC(F)(F)F)CCn1c(nc3ccccc31)NC2=O" have GI50 under 30 nM?
Result: T
